Items are presented alongside their recorded efflux ratio at 3 μM.
Tested on: P-glycoprotein (P-gp, MDR1)
Method: Permeability assay, bidirectional transport, efflux ratio (Example 30, Table 34)
Format: in vitro ADME, canine
Settings: dog, MDCK-MDR1, pH 7.4; read-out: MDCK-MDR efflux ratio
Readout Kind: efflux ratio at 3 μM

{"Compound Structure": "CCCCCOc1cc(N2CC[C@H](C)N(Cc3cccc4c3c(Cl)cn4CC(=O)N(C)C)C2=O)ccc1OC", "Measured Number": 12}
{"Compound Structure": "CCCCCOc1cc(N2CC[C@H](C)N(Cc3ccnc4c3c(Cl)cn4CC(=O)N3CC(O)C3)C2=O)ccc1OC", "Measured Number": 98}
{"Compound Structure": "CCCCCOc1cc(N2CCCN(Cc3ccc(CNC(C)=O)cc3OC)C2=O)ncc1OC", "Measured Number": 31}
{"Compound Structure": "CCCCCOc1cc(N2CCCN(Cc3ccnc4c3c(Cl)cn4CC(=O)N(C)CC#N)C2=O)ccc1OC", "Measured Number": 75}
{"Compound Structure": "CCCCCOc1cc(N2CCCN(Cc3ccnc4c3c(Cl)cn4CC(=O)N3CCC3)C2=O)ccc1OC", "Measured Number": 23}
{"Compound Structure": "CCCCCOc1cc(N2CCCN(Cc3ccnc4c3c(Cl)cn4CC(=O)N3CC4CC(C3)O4)C2=O)ccc1OC", "Measured Number": 59}
{"Compound Structure": "COc1cc(CC(=O)N[C@@H]2CN(C)C[C@@H]2F)ccc1CN1C(=O)N(c2ccc(OC)c(OCCCC3CC3)c2)CC[C@@H]1C", "Measured Number": 144}
{"Compound Structure": "COc1ccc(N2CCCN(Cc3ccnc4c3c(Cl)cn4CC(=O)N(C)C)C2=O)cc1Br", "Measured Number": 8}

These measurements were taken from patent US20230115176A1.
